# MEASUREMENT_NOTES: activity coefficient (dimensionless); of the first substance listed, at infinite dilution; xn = mol fraction of the nth substance listed
# RUN_PARAMETERS: 343.1 K; 101 kPa; Liquid; Chromatography; x1 = 0
EXPERIMENTAL_ENDPOINT: activity coefficient
// return just the number, without any unit appended

{"COMPOUND": "CO [methanol] + CCCCCCCC[N+]1(C)CCCC1.O=S(=O)([N-]S(=O)(=O)C(F)(F)F)C(F)(F)F", "activity coefficient": 0.71}
{"COMPOUND": "C#CCCCCC [1-heptyne] + CCCCCCCC[N+]1(C)CCCC1.O=S(=O)([N-]S(=O)(=O)C(F)(F)F)C(F)(F)F", "activity coefficient": 1.9}
{"COMPOUND": "C1CCCCC1 [cyclohexane] + CCCCCC[N+]1(C)CCCC1.O=S(=O)([N-]S(=O)(=O)C(F)(F)F)C(F)(F)F", "activity coefficient": 4.67}

Quick one: activity coefficient of ClC(Cl)Cl [trichloromethane] + CCCCCCCC[N+]1(C)CCCC1.O=S(=O)([N-]S(=O)(=O)C(F)(F)F)C(F)(F)F ?
0.53

###

# MEASUREMENT_NOTES: activity coefficient (dimensionless); of the first substance listed, at infinite dilution; xn = mol fraction of the nth substance listed
# RUN_PARAMETERS: 343.1 K; 101 kPa; Liquid; Chromatography; x1 = 0
Kind request: treat 1 as inclusive, so activity coefficient at 1 or higher is criterion met, anything lower is criterion not met.

{"MOLECULE": "CCCCCC [hexane] + CCCCCCCC[N+]1(C)CCCC1.O=S(=O)([N-]S(=O)(=O)C(F)(F)F)C(F)(F)F", "GROUP_LABEL": "criterion met"}
{"MOLECULE": "CC1CCCC1 [methylcyclopentane] + CCCCCC[N+]1(C)CCCC1.O=S(=O)([N-]S(=O)(=O)C(F)(F)F)C(F)(F)F", "GROUP_LABEL": "criterion met"}
{"MOLECULE": "c1ccccc1 [benzene] + CCCCCC[N+]1(C)CCCC1.O=S(=O)([N-]S(=O)(=O)C(F)(F)F)C(F)(F)F", "GROUP_LABEL": "criterion not met"}

Decide: activity coefficient of CCCC(C)=O [pentan-2-one] + CCCCCC[N+]1(C)CCCC1.O=S(=O)([N-]S(=O)(=O)C(F)(F)F)C(F)(F)F >= 1?
criterion not met

Decide: activity coefficient of CC#N [acetonitrile] + CCCCCCCC[N+]1(C)CCCC1.O=S(=O)([N-]S(=O)(=O)C(F)(F)F)C(F)(F)F >= 1?
criterion not met

Decide: activity coefficient of C#CCCCC [1-hexyne] + CCCCCC[N+]1(C)CCCC1.O=S(=O)([N-]S(=O)(=O)C(F)(F)F)C(F)(F)F >= 1?
criterion met

Decide: activity coefficient of CC(C)O [propan-2-ol] + CCCCCCCC[N+]1(C)CCCC1.O=S(=O)([N-]S(=O)(=O)C(F)(F)F)C(F)(F)F >= 1?
criterion met

###

# MEASUREMENT_NOTES: activity coefficient (dimensionless); of the first substance listed, at infinite dilution; xn = mol fraction of the nth substance listed
# RUN_PARAMETERS: 342.8 K; 101 kPa; Liquid; Chromatography; x1 = 0
EXPERIMENTAL_ENDPOINT: activity coefficient
// return just the number, without any unit appended

{"COMPOUND": "CCC(C)=O [butanone] + CCCCCCCCCC[N+]1(C)CCCC1.O=S(=O)([N-]S(=O)(=O)C(F)(F)F)C(F)(F)F", "activity coefficient": 0.34}
{"COMPOUND": "CC1CCCC1 [methylcyclopentane] + CCCCCCCCCC[N+]1(C)CCCC1.O=S(=O)([N-]S(=O)(=O)C(F)(F)F)C(F)(F)F", "activity coefficient": 2.66}
{"COMPOUND": "c1ccccc1 [benzene] + CCCCCCCCCC[N+]1(C)CCCC1.O=S(=O)([N-]S(=O)(=O)C(F)(F)F)C(F)(F)F", "activity coefficient": 0.64}

Quick one: activity coefficient of c1ccncc1 [pyridine] + CCCCCCCCCC[N+]1(C)CCCC1.O=S(=O)([N-]S(=O)(=O)C(F)(F)F)C(F)(F)F ?
0.47

Attribution: the NIST ThermoML archive (doi:10.1021/je300692s)
